Biological target: human FAAH (Homo sapiens)
Construct: expressed in transfected cells
Test: Assay Method 1: FAAH assay, hydrolysis of 3H-anandamide by homogenate of SK-N-MC cells transfected with human FAAH
Format: biochemical
Details: human FAAH; T84 or transfected SK-N-MC cell homogenate; 3H-AEA tracer 80 nM; rt 1 h; pH 9; read-out: Assay 1 IC50
outcome.measure: pIC50
Answers are plain numbers, as −log10 of the molar value.

Solved cases below.
{"substance.smiles": "CC(C)c1cccc(CN2CCC(CCCC(=O)c3ncco3)CC2)c1", "pIC50": 9.00}
{"substance.smiles": "O=C(CCCC1CCN(Cc2cccc(Br)c2)CC1)c1ncco1", "pIC50": 8.00}
{"substance.smiles": "O=C(CCCC1CCN(Cc2ccc(Cl)cc2)CC1)c1ncco1", "pIC50": 7.18}

Shifting focus to the molecule that follows.
Entry O=C(CCCC1CCN(Cc2ccccc2Br)CC1)c1ncco1 : reported pIC50 = ?
6.50

---

Target: human FAAH (Homo sapiens)
Construct: expressed in transfected cells
Assay: Assay Method 1: FAAH assay, hydrolysis of 3H-anandamide by homogenate of SK-N-MC cells transfected with human FAAH
Type: biochemical
Settings: human FAAH; T84 or transfected SK-N-MC cell homogenate; 3H-AEA tracer 80 nM; rt 1 h; pH 9; read-out: Assay 1 IC50
Answer each item with its documented IC50.
Answers are plain numbers, in nM.

{"substance.smiles": "O=C(CCCC1CCN(Cc2cccc(-c3ccccc3)c2)CC1)c1ncco1", "target.of.assay": "human FAAH (Homo sapiens)", "endpoint.unit": "nM", "IC50": 0.9}
{"substance.smiles": "O=C(CCCC1CCN(Cc2ccc(Br)cc2)CC1)c1ncco1", "target.of.assay": "human FAAH (Homo sapiens)", "endpoint.unit": "nM", "IC50": 45}
{"substance.smiles": "CCOC(=O)N1CCC(CCCC(=O)c2ncco2)CC1", "target.of.assay": "human FAAH (Homo sapiens)", "endpoint.unit": "nM", "IC50": 6}
{"substance.smiles": "CCCS(=O)(=O)N1CCC(CCCC(=O)c2ncco2)CC1", "target.of.assay": "human FAAH (Homo sapiens)", "endpoint.unit": "nM", "IC50": 120}
{"substance.smiles": "CC(C)c1ccc(CN2CCC(CCCC(=O)c3ncco3)CC2)cc1", "target.of.assay": "human FAAH (Homo sapiens)", "endpoint.unit": "nM", "IC50": 3}

For each entry beneath this line, provide reported IC50.
1. CC(C)CC(=O)N1CCC(CCCC(=O)c2ncco2)CC1
2. CC(C)Oc1ccc(CN2CCC(CCCC(=O)c3ncco3)CC2)cc1
3. O=C(CCCC1CCN(C(=O)CCc2ccc(Cl)cc2)CC1)c1ncco1
4. O=C(CCCC1CCN(CC2CCCCC2)CC1)c1ncco1
5. CC(C)(C)OC(=O)N1CCC(CCCC(=O)c2ncc(C(=O)O)o2)CC1
6. CC(C)(C)COC(=O)N1CCC(CCCC(=O)c2ncco2)CC1
7. O=C(CCCC1CCN(C(=O)C2CCCCC2)CC1)c1ncco1

400
14
12
9500
30
50
45

---

Target: human FAAH (Homo sapiens, UniProt O00519)
Construct: expressed in transfected cells
Sequence (O00519 1-579): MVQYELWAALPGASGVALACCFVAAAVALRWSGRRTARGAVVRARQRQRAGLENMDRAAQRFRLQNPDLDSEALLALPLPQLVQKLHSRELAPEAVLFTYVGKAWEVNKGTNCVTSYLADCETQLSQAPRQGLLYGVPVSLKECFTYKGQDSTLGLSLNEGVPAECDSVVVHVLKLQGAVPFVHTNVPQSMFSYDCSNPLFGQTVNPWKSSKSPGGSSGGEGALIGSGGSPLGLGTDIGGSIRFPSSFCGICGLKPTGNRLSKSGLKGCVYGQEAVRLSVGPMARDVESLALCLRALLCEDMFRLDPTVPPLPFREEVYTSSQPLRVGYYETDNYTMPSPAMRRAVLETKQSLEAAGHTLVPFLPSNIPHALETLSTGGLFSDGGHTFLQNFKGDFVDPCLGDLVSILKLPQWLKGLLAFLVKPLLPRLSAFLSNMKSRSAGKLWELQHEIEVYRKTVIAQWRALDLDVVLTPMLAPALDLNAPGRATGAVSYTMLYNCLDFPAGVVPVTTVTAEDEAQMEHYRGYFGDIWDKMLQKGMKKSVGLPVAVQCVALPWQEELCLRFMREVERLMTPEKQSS
Assay: Assay Method 1: FAAH assay, hydrolysis of 3H-anandamide by homogenate of SK-N-MC cells transfected with human FAAH
Format: biochemical
Settings: human FAAH; T84 or transfected SK-N-MC cell homogenate; 3H-AEA tracer 80 nM; rt 1 h; pH 9; read-out: Assay 1 IC50
Answer each item with its documented pIC50.
Answers are plain numbers, as −log10 of the molar value.

{"substance.smiles": "COc1cccc(CN2CCC(CCCC(=O)c3ncco3)CC2)c1", "target.of.assay": "human FAAH (Homo sapiens, UniProt O00519)", "pIC50": 7.44}
{"substance.smiles": "O=C(CCCC1CCN(Cc2ccc(F)cc2F)CC1)c1ncco1", "target.of.assay": "human FAAH (Homo sapiens, UniProt O00519)", "pIC50": 6.96}

For each entry beneath this line, provide reported pIC50.
1. O=C(CCCC1CCN(S(=O)(=O)c2ccccc2)CC1)c1ncco1
2. O=C(CCCC1CCN(Cc2cccc(Br)n2)CC1)c1ncco1
3. O=C(CCCC1CCN(C(=O)CCc2cccnc2)CC1)c1ncco1

1. 6.15
2. 6.50
3. 6.40
